Below, each entry is listed with its recorded IC50.
# Tgt: recombinant human cGAS (Homo sapiens (Human))
# Assay text: In vitro inhibition assay of cGAS activity (cGAMP production, RapidFire mass spectrometry)
# Format: biochemical
# Condition info: 10 nM recombinant human cGAS, 60 nM 75-bp dsDNA, ATP, GTP, room temperature 3 hours, read-out: IC50 (μM), In vitro inhibition assay for Compounds 95-348
Value and unit, in that order.

Sample answers from the record:
Compound	Tgt	Measured property	Reported result
CCOc1cc(Cl)c(Cl)c2c1c(-c1cn[nH]c1)c1n2CC[C@@H]1NC(C)=O	recombinant human cGAS (Homo sapiens (Human))	IC50	0.0806 µM
CNC(=O)CC(=O)NC1CCc2c(-c3cn[nH]c3)c3ccc(Cl)c(Cl)c3n2C1 (centres unmarked)	recombinant human cGAS (Homo sapiens (Human))	IC50	0.0275 µM
Clc1ccc2c(-c3cn[nH]c3)cn(-c3c[nH]nn3)c2c1	recombinant human cGAS (Homo sapiens (Human))	IC50	0.0563 µM
CC(=O)N1CCn2c(c(-c3cn[nH]c3)c3c(OCC#N)cc(Cl)c(Cl)c32)C1	recombinant human cGAS (Homo sapiens (Human))	IC50	0.0087 µM
O=C(CF)Nc1cc(Cl)c(Cl)c2[nH]cc(-c3cn[nH]c3)c12	recombinant human cGAS (Homo sapiens (Human))	IC50	0.00567 µM

Record summary for CN1CCOC[C@@H]1CC(=O)N1CCn2c(c(-c3cn[nH]c3)c3c(OCC#N)cc(Cl)c(Cl)c32)C1 : reported IC50 = 0.0244 µM

Record summary for CCNC(=O)COCC(=O)N1CCn2c(c(-c3cn[nH]c3)c3ccc(Cl)c(Cl)c32)C1 : reported IC50 = 0.0585 µM

Record summary for NC(=O)Cn1cc(-n2cc(-c3cn[nH]c3)c3ccc(Cl)c(Cl)c32)nn1 : reported IC50 = 0.0538 µM

====

# Tgt: recombinant human cGAS (Homo sapiens (Human), UniProt Q8N884)
# Sequence (Q8N884 whole entry): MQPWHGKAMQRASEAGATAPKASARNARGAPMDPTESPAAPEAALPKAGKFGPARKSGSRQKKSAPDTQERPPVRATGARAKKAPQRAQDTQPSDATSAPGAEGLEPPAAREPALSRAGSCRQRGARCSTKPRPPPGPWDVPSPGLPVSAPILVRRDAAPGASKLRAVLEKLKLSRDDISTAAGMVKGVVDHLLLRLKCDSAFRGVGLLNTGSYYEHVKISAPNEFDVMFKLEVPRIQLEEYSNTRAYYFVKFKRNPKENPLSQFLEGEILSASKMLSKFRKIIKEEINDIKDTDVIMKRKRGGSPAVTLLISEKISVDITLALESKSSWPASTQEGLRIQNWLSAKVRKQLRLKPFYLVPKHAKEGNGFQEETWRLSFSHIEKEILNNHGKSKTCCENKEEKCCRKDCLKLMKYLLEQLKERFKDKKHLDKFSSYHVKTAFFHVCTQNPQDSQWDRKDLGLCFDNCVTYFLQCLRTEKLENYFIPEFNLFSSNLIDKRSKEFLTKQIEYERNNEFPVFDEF
# Assay text: In vitro inhibition assay of cGAS activity (cGAMP production, RapidFire mass spectrometry)
# Type: biochemical
# Condition info: 10 nM recombinant human cGAS, 60 nM 75-bp dsDNA, ATP, GTP, room temperature 3 hours, read-out: IC50 (μM), In vitro inhibition assay for Compounds 95-348
Below, each entry is listed with its recorded IC50.
The reply should contain only the number, in µM.

Sample answers from the record:
Compound	Measured property	Reported result
O=C(CO)NC1Cc2c(-c3cn[nH]c3)c3ccc(Cl)c(Cl)c3n2C1 (single isomer, unassigned) [Example 247]	IC50	0.0146
O=C1Cn2c(c(-c3cn[nH]c3)c3ccc(Cl)c(Cl)c32)CC(CO)N1 (centres unmarked)	IC50	0.0705
O=C(CC1COCCOC1)N1CCn2c(c(-c3cn[nH]c3)c3ccc(Cl)c(Cl)c32)C1	IC50	0.0234

Record summary for CCS(=O)(=O)NCc1[nH]c2c(Cl)c(Cl)ccc2c1-c1cn[nH]c1 : reported IC50 = 0.0712

Record summary for FC(F)(F)c1nnc(-c2[nH]c3c(Cl)c(Cl)ccc3c2-c2cn[nH]c2)o1 : reported IC50 = 0.0691

====

# Tested on: cGAS activity in THP1 cells (IFNb as marker)
# Assay text: Cellular assay to measure cGAS activity (IFNb production in PMA-differentiated THP1 cells stimulated by RDG-Adenovirus-GFP)
# Type: cell-based, human
# Condition info: THP1 cells, PMA differentiated, RDG-Adenovirus-GFP 1000 MOI, IFNb AlphaLISA, overnight incubation; read-out: IC50 (μM), Cellular assay for Compounds 95-348
Measured property: IC50 (µM)
The reply should contain only the number, in µM.

Molecule	Tgt	IC50 / µM
O=C(CO)NC1CCn2c1c(-c1cn[nH]c1)c1ccc(Cl)c(Cl)c12 (single isomer, unassigned) [Example 346]	cGAS activity in THP1 cells (IFNb as marker)	0.914
O=C1NCC(C(=O)N2CCn3c(c(-c4cn[nH]c4)c4ccc(Cl)c(Cl)c43)C2)O1 (single isomer, unassigned) [Example 259]	cGAS activity in THP1 cells (IFNb as marker)	0.765
O=C(CO)NC1CCn2c1c(-c1cn[nH]c1)c1ccc(Cl)c(Cl)c12 (single isomer, unassigned) [Example 345]	cGAS activity in THP1 cells (IFNb as marker)	3.97
O[C@@H]1C[C@H](Oc2cc(Cl)c(Cl)c3[nH]cc(-c4cn[nH]c4)c23)[C@@H](O)C1 (single isomer, unassigned) [Example 271]	cGAS activity in THP1 cells (IFNb as marker)	6.75
OCC(O)CNc1cc(Cl)c(Cl)c2[nH]cc(-c3cn[nH]c3)c12 (single isomer, unassigned)	cGAS activity in THP1 cells (IFNb as marker)	3.62
O[C@@H]1C[C@H](Oc2cc(Cl)c(Cl)c3[nH]cc(-c4cn[nH]c4)c23)[C@@H](O)C1 (single isomer, unassigned) [Example 270]	cGAS activity in THP1 cells (IFNb as marker)	0.635
OCCC1CCn2c1c(-c1cn[nH]c1)c1ccc(Cl)c(Cl)c12 (single isomer, unassigned; isomer 2)	cGAS activity in THP1 cells (IFNb as marker)	9.35
O=C1NCC(C(=O)N2CCn3c(c(-c4cn[nH]c4)c4ccc(Cl)c(Cl)c43)C2)O1 (single isomer, unassigned) [Example 260]	cGAS activity in THP1 cells (IFNb as marker)	4.05

Turning now to a further molecule:
Record summary for O=C(CO)NC1Cc2c(-c3cn[nH]c3)c3ccc(Cl)c(Cl)c3n2C1 (single isomer, unassigned) [Example 247] : reported IC50 = 2.73

====

# Tgt: recombinant human cGAS (Homo sapiens (Human), UniProt Q8N884)
# Assay text: In vitro inhibition assay of cGAS activity (cGAMP production, RapidFire mass spectrometry)
# Assay type: biochemical
# Condition info: 10 nM recombinant human cGAS, 60 nM 75-bp dsDNA, ATP, GTP, room temperature 3 hours, read-out: IC50 (μM), In vitro inhibition assay for Compounds 95-348
# class assignment by measured IC50: A = under 0.01 µM, B = from 0.01 µM up to 0.03 µM, C = 0.03 µM and over

Compound	Group label
CC(=O)N[C@H]1CCn2c1c(-c1cn[nH]c1)c1c(OCC#N)cc(Cl)c(Cl)c12 [Example 232]	A

Query block: Hi, small favor: classify O=C(Cc1cnccn1)NCc1[nH]c2c(Cl)c(Cl)ccc2c1-c1cn[nH]c1 [Example 112] by its IC50 when you get a moment.
Result block: C

Query block: Hi, small favor: classify Cc1nnc(N2CCn3c(c(-c4cn[nH]c4)c4c(OCC#N)cc(Cl)c(Cl)c43)C2)s1 [Example 203] by its IC50 when you get a moment.
Result block: A

====

# Tgt: recombinant human cGAS (Homo sapiens (Human), UniProt Q8N884)
# Assay text: In vitro inhibition assay of cGAS activity (cGAMP production, RapidFire mass spectrometry)
# Type: biochemical
# Condition info: 10 nM recombinant human cGAS, 60 nM 75-bp dsDNA, ATP, GTP, room temperature 3 hours, read-out: IC50 (μM), In vitro inhibition assay for Compounds 95-348
Below, each entry is listed with its recorded IC50.
The reply should contain only the number, in µM.

Sample answers from the record:
Compound	Tgt	IC50 / µM
N#CCOc1cc(Cl)c(Cl)c2c1c(-c1cn[nH]c1)cn2-c1cn(CCO)nn1 [Example 197]	recombinant human cGAS (Homo sapiens (Human), UniProt Q8N884)	0.00893
N#CCOc1cc(Cl)c(Cl)c2c1c(-c1cn[nH]c1)c1n2CCN(CCO)C1=O [Example 142]	recombinant human cGAS (Homo sapiens (Human), UniProt Q8N884)	0.0127
CC(=S)Nc1cc(Cl)c(Cl)c2[nH]cc(-c3cn[nH]c3)c12 [Example 231]	recombinant human cGAS (Homo sapiens (Human), UniProt Q8N884)	0.0724
CCC(=O)NCc1[nH]c2c(Cl)c(Cl)ccc2c1-c1cn[nH]c1 [Example 163]	recombinant human cGAS (Homo sapiens (Human), UniProt Q8N884)	0.076

Turning now to a further compound:
Record summary for COc1cc2c(-c3cn[nH]c3)cn(-c3cccnn3)c2cc1Cl [Example 341] : reported IC50 = 0.0276

====

# Test system: cGAS activity in THP1 cells (IFNb as marker)
# Assay text: Cellular assay to measure cGAS activity (IFNb production in PMA-differentiated THP1 cells stimulated by RDG-Adenovirus-GFP)
# Assay type: cell-based, human
# Condition info: Homo sapiens, THP-1, THP1 cells, PMA differentiated, RDG-Adenovirus-GFP 1000 MOI, IFNb AlphaLISA, overnight incubation; read-out: IC50 (μM), Cellular assay for Compounds 95-348
# Procedure: Cellular assay to measure cGAS activity: Use THP1 cell line from ATCC to determine inhibition of cGAS activity by test compounds in human cells. Plate cells on 96-well plates at 0.2×10^6/well and differentiate with phorbol myristate acetate (PMA) at 37° C./5% CO2. […] Measure quantification of IFNb with an IFNb AlphaLISA Detection kit (Perkin Elmer AL3133F) by mixing the acceptor beads with the cell supernatant followed by the addition of the biotinylated antibody and donor beads. […]
Measured property: IC50 (µM)
The reply should contain only the number, in µM.

Compound	Result units	IC50
COc1cc2c(-c3cn[nH]c3)cn(-c3cn(CCO)nn3)c2cc1Cl [Example 152]	µM	1.4

Turning now to a further compound:
Record summary for COCC(=O)N1CCn2c(c(-c3cn[nH]c3)c3c(OCC#N)cc(Cl)c(Cl)c32)C1 [Example 279] : reported IC50 = 0.74
